Record set of MIC for target or system Staphylococcus aureus ICB 25768.
Dear colleague, please send the value followed by its unit.

[
  {
    "compound": "CC1C=CC(N)C2CN(c3c(F)cc4c(=O)c(C(=O)O)c5scc6n5c4c3OC6)CC12 (stereo not shown) [Example 5]",
    "target": "Staphylococcus aureus ICB 25768",
    "endpoint.result": "0.5 µg/mL"
  },
  {
    "compound": "CNC1C=CCC2CN(c3c(F)cc4c(=O)c(C(=O)O)c5scc6n5c4c3OC6)CC21 (stereo not shown) [Example 3]",
    "target": "Staphylococcus aureus ICB 25768",
    "endpoint.result": "0.5 µg/mL"
  }
]

Quick one: MIC of O=C(O)c1c(=O)c2cc(F)c(N3C[C@@H]4CCCN[C@@H]4C3)c3c2n2c(csc12)CO3 [Example 2] ?
32 µg/mL

Continue with NC1C=CCC2CN(c3c(F)cc4c(=O)c(C(=O)O)c5scc6n5c4c3OC6)CC12 (stereo not shown) [Example 4]
0.25 µg/mL
